Tested on: DU-145
protocolNotes: Inhibition of cells growth by colorimetric assay (SRB)
setupConditions: Homo sapiens, DU-145, 48 h, read-out: DU145 LC50
Mark MET only for CC50 values smaller than 10 µM; exact matches and larger values are NOT MET.

Use the examples below as a reference point.
# compound, subjectOfTest, className
measured = [
    ("C=CCN1[C@@H]2c3c(cc(C)c(OC)c3O)C[C@H]1[C@H](C#N)N1C2[C@@H]2SC[C@]3(NCCc4cc(O)c(OC)cc43)C(=O)OC[C@H]1c1c3c(c(C)c(OC(=O)CCCCCCC)c12)OCO3 (some centres unmarked) [compound 50]", "DU-145", "NOT MET"),
    ("COc1c(C)cc2c(c1O)[C@H]1N[C@@H](C2)[C@H](O)N2C1[C@@H]1SC[C@]3(NCCc4c3[nH]c3ccccc43)C(=O)OC[C@H]2c2c3c(c(C)c(OC(C)=O)c21)OCO3 (some centres unmarked) [compound 63]", "DU-145", "MET"),
    ("COc1c(C)cc2c(c1O)[C@H]1N[C@@H](C2)[C@H](C#N)N2C1[C@@H]1SC[C@]3(NCCc4c3[nH]c3ccccc43)C(=O)OC[C@H]2c2c3c(c(C)c(OC(C)=O)c21)OCO3 (some centres unmarked) [compound 59]", "DU-145", "MET"),
    ("COC1=C(C)C(=O)C2=C(C1=O)C1C3[C@@H]4SCC(=O)C(=O)OC[C@@H](c5c6c(c(C)c(OC(C)=O)c54)OCO6)N3[C@@H](O)[C@H](C2)N1C (some centres unmarked) [Et-594-quinone]", "DU-145", "NOT MET"),
    ("CCCCCCCC(=O)Oc1c(C)c2c(c3c1[C@H]1SC[C@]4(NCCc5cc(O)c(OC)cc54)C(=O)OC[C@@H]3N3C1[C@@H]1N[C@@H](Cc4cc(C)c(OC)c(O)c41)[C@@H]3C#N)OCO2 (some centres unmarked) [compound 52]", "DU-145", "MET"),
]

### Prompt Regarding COc1cc2c(cc1O)CCN[C@]21CS[C@@H]2c3c(O)c(C)c4c(c3[C@H](COC1=O)N1C2[C@@H]2N[C@@H](Cc3cc(C)c(OC)c(O)c32)[C@@H]1O)OCO4 (some centres unmarked) [compound 68] , kindly confirm whether its CC50 is beneath 10 µM.
### Response NOT MET

----------
Test system: PANC-1
protocolNotes: Inhibition of cells growth by colorimetric assay (SRB)
setupConditions: Homo sapiens, PANC-1, 48 h, read-out: PANC-1 TGI
metric: IC (TGI) (nM)
Give just the numeric value; nM need not be written.

### Prompt Answer with IC (TGI) of C=CCN1[C@@H]2c3c(cc(C)c(OC)c3O)C[C@H]1[C@H](C#N)N1C2[C@@H]2SC[C@]3(NCCc4c3[nH]c3ccc(OC)cc43)C(=O)OC[C@H]1c1c3c(c(C)c(OC(C)=O)c12)OCO3 (some centres unmarked) measured for PANC-1.
### Response 953

### Prompt Answer with IC (TGI) of COc1c(C)cc2c(c1OC(=O)/C=C/c1ccccc1)[C@H]1N[C@@H](C2)[C@H](O)N2C1[C@@H]1SCC(NC(=O)C(F)(F)F)C(=O)OC[C@H]2c2c3c(c(C)c(OC(C)=O)c21)OCO3 (some centres unmarked) measured for PANC-1.
### Response 747

### Prompt Answer with IC (TGI) of C=CCN1[C@@H]2c3c(cc(C)c(OC)c3O)C[C@H]1[C@H](C#N)N1C2[C@@H]2SC[C@]3(NCCc4c3[nH]c3ccc(O)cc43)C(=O)OC[C@H]1c1c3c(c(C)c(OC(C)=O)c12)OCO3 (some centres unmarked) measured for PANC-1.
### Response 1340

### Prompt Answer with IC (TGI) of COc1c(C)cc2c(c1O)[C@H]1N[C@@H](C2)[C@H](C#N)N2C1[C@@H]1SC[C@]3(NCCc4c3[nH]c3ccccc43)C(=O)OC[C@H]2c2c3c(c(C)c(OC(C)=O)c21)OCO3 (some centres unmarked) measured for PANC-1.
### Response 42.3

### Prompt Answer with IC (TGI) of COc1cc2c(cc1O)CCN[C@]21CS[C@@H]2c3c(OC(=O)/C=C/c4ccccc4)c(C)c4c(c3[C@H](COC1=O)N1C2[C@@H]2N[C@@H](Cc3cc(C)c(OC)c(O)c32)[C@@H]1C#N)OCO4 (some centres unmarked) measured for PANC-1.
### Response 7.73
